Attribution: the Human Domainome abundance scans (Beltran et al. 2025)

B1: Lysine-specific demethylase 2B, residues 656 to 722; numbered along this chain, Q8NHM5 (parent)
chain: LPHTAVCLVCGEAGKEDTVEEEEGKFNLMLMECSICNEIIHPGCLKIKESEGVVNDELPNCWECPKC

# Variants of: B1
# run.description: abundance fitness (aPCA) (normalised: wild type 0, dead -1); higher = more abundant; growth selection in yeast, the domain comes from the species named
# conditions.used: Homo sapiens
reported.property: abundance fitness
Just the number.

{"columns": ["sequence.text", "measured.number"],
 "data": [
  ["LPHTAVCLVCGEAGKEDTVEEEEGKFNLMLMECSICNEIIHPGCLKIKESEGVVNDELPMCWECPKC [N60M]", -0.234],
  ["LPHTAVCLVCGEAGKEDTVEEEEGKFNLMLMECSICNEIIHPMCLKIKESEGVVNDELPNCWECPKC [G43M]", 0.113],
  ["LPHTAVCLVCGEAGKEDTVEEEEGKFNLMLMECSICNEIIHPGCLKIKESEGVVNDVLPNCWECPKC [E57V]", -0.168],
  ["LPHTAVCLVCGEAGKEDTVEEEEGKFNLMLMECSICNEIIHPGCLKIKESEGVVVDELPNCWECPKC [N55V]", -0.236],
  ["LPHTAVCLVCGEAGKEDTVEEEEGKFNLMLMECSICNEIIHPGCLKIKESEGVVNDELPNCWECPKL [C67L]", -1.03],
  ["LPHTAVCLVCGEAGKEDTVEEEEGKFNLMLMECSICNEIIHPGCLKIKESEGVVNDELPNCWECHKC [P65H]", -0.289],
  ["LPHTAVCLVCGEAGKEDTWEEEEGKFNLMLMECSICNEIIHPGCLKIKESEGVVNDELPNCWECPKC [V19W]", -0.429],
  ["LPHTAVCLVCGEAGKEDTVEEEEGKFNLMLMECSICNEIIHPGCLKIQESEGVVNDELPNCWECPKC [K48Q]", 0.108],
  ["LPHTAVCLVCGEAGKEDTVEEEEGKFNLMLMECSICNEIIHPGCVKIKESEGVVNDELPNCWECPKC [L45V]", -0.092],
  ["LPHTAVCLVCGEAGKEDTVEEEEGGFNLMLMECSICNEIIHPGCLKIKESEGVVNDELPNCWECPKC [K25G]", -0.33]
]}

Then this variant:
Lab note: LPHTAVCLVCGEAGYEDTVEEEEGKFNLMLMECSICNEIIHPGCLKIKESEGVVNDELPNCWECPKC [K15Y] gave abundance fitness of -0.583
